This collection of values is drawn from patent US11566007B2.

Listed below: IC50 values for each entry.
- assayed-system: KRAS G12D (Homo sapiens (Human), UniProt P01116+P62937, G12D)
- Sequence (P01116-2 other isoform, or with tags, fused parts or gaps G12D): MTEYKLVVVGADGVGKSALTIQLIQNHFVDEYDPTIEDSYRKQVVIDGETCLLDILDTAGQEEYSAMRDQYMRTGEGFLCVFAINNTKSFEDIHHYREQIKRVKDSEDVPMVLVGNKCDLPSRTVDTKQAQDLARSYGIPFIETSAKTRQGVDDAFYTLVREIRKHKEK
- Sequence (P62937 whole entry): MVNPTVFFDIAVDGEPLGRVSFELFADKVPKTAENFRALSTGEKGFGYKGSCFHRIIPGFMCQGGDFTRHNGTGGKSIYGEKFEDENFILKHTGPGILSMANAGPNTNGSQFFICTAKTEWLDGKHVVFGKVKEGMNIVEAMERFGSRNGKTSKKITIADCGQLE
- protocol: Ras-Raf (BRAF RBD) disruption / FRET / MOA assay, KRAS G12D
- Format: biochemical
- assay-conditions: Ras-Raf disruption/FRET/MOA assay; class symbols; read-out: KRAS G12D FRET data IC50
- Experimental: The purpose of this biochemical assay is to measure the ability of test compounds to facilitate ternary complex formation between a nucleotide-loaded Ras isoform and cyclophilin A; the resulting ternary complex disrupts binding to a BRAF^RBD construct, inhibiting Ras signaling through a RAF effector. Compound is present in plate wells as a 10-point 3-fold dilution series starting at a final concentration of 30 μM. […]

compound: C=CC(=O)N1CCC2(C1)CN(C(=O)N(C)[C@H](C(=O)N[C@H]1Cc3nc(cs3)-c3ccc4c(c3)c(c(-c3cccnc3[C@H](C)OC)n4CC(F)(F)F)CC(C)(C)COC(=O)[C@@H]3CCCN(N3)C1=O)C(C)C)C2
assayed-system: KRAS G12D (Homo sapiens (Human), UniProt P01116+P62937, G12D)
IC50: 0.1 to 1 µM
//
compound: CCn1c(-c2cccnc2[C@H](C)OC)c2c3cc(ccc31)-c1cccc(c1)C[C@H](NC(=O)[C@H](C1CCCC1)N(C)C(=O)[C@@H]1CN(C(=O)C#CC(C)(C)N(C)C)C[C@@H]1C)C(=O)N1CCC[C@H](N1)C(=O)OCC(C)(C)C2 (atropisomer, axis not shown)
assayed-system: KRAS G12D (Homo sapiens (Human), UniProt P01116+P62937, G12D)
IC50: > 10 µM
//
compound: C=CC(=O)N1CC[C@H](C(=O)N(C)[C@H](C(=O)N[C@H]2Cc3cc(O)cc(c3)-c3ccc4c(c3)c(c(-c3cccnc3COCC)n4CC)CC(C)(C)COC(=O)[C@@H]3CCCN(N3)C2=O)C(C)C)C1
assayed-system: KRAS G12D (Homo sapiens (Human), UniProt P01116+P62937, G12D)
IC50: 1 to 10 µM

Short answer please: IC50, KRAS G12D (Homo sapiens (Human), UniProt P01116+P62937, G12D), entry CO[C@@H](C)c1ncccc1-c1c2c3cc(ccc3n1CC(F)(F)F)N1CCO[C@@H](C[C@H](NC(=O)[C@H](C(C)C)N3CC[C@@]4(CCN(C(=O)C#CC(C)(C)N(C)C)C4)C3=O)C(=O)N3CCC[C@H](N3)C(=O)OCC(C)(C)C2)C1 (atropisomer, axis not shown) > 10 µM

Then C=CC(=O)N1CCN(C(=O)N(C)[C@H](C(=O)N[C@H]2Cc3nc(cs3)-c3ccc4c(c3)c(c(-c3cccnc3[C@H](C)OC)n4CC)CC(C)(C)COC(=O)[C@@H]3CCCN(N3)C2=O)C(C)C)CC1 (atropisomer, axis not shown) [Example A493] ? 0.1 to 1 µM

# repeat for C=CC(=O)Nc1cnc(OC[C@H](C(=O)N[C@H]2Cc3cccc(c3)-c3ccc4c(c3)c(c(-c3cccnc3[C@H](C)OC)n4CC)CC(C)(C)COC(=O)[C@@H]3CCCN(N3)C2=O)C(C)C)n1C (atropisomer, axis not shown) 1 to 10 µM

# iterate: CO[C@@H](C)c1ncccc1-c1c2c3cc(ccc3n1CC(F)(F)F)N1CCO[C@@H](C[C@H](NC(=O)[C@@H](COC3CN(C(=O)C#CC(C)(C)N(C)C)C3)C(C)C)C(=O)N3CCC[C@H](N3)C(=O)OCC(C)(C)C2)C1 (atropisomer, axis not shown) > 10 µM

# repeat for `C=CC(=O)N1CC[C@H](C(=O)N(C)[C@H](C(=O)N[C@H]2Cc3cc(O)cc(c3)-c3ccc4c(c3)c(c(-c3csc(N(C)C)n3)n4CC)CC(C)(C)COC(=O)[C@@H]3CCCN(N3)C2=O)C(C)C)C1` > 10 µM

Then C=CC(=O)N1CC[C@H](C(=O)N(C)[C@H](C(=O)N[C@H]2Cc3nc(ns3)-c3ccc4c(c3)c(c(-c3cccnc3[C@H](C)OC)n4CC)CC(C)(C)COC(=O)[C@@H]3CCCN(N3)C2=O)C(C)C)C1 (atropisomer, axis not shown) ? > 10 µM
